Tested on: Mouse BV-2 microglial cells
Assay: BV-2 glial cell assay (TNF-α and MCP-1 by Luminex)
Format: cell-based
Conditions: Mus musculus, BV-2; LPS and IFN-γ activated, 20 hours; read-out: MCP-1 BV-2 (EC50 in μM)

molecule: CC(C)C(=O)c1c(C(C)C)nn2ccccc12 [AV411, reference compound]
EC50, µM: 42

molecule: Cc1cccc2c(-c3ccnc(NC4CCCC4)n3)cnn12
EC50, µM: 0.9

molecule: c1ccn2nc(C3CC3)c(-c3ccnc(NC4CCCC4)n3)c2c1
EC50, µM: 0.3

molecule: Brc1cccc(-c2nn3ccccc3c2-c2ccnc(NC3CCCC3)n2)c1
EC50, µM: 0.7

molecule: CCCNc1nccc(-c2cnn3ccccc23)n1
EC50, µM: 1.1

molecule: CC(C)Nc1nccc(-c2c(C3CC3)nn3ccccc23)n1
EC50, µM: 0.7

molecule: CC(C)c1nn2ccccc2c1-c1cnc(N)nc1
EC50, µM: 0.3

molecule: Fc1cccc(-c2nn3ccccc3c2-c2ccnc(NC3CCCC3)n2)c1
EC50, µM: 1.6

molecule: CC(C)CNc1nccc(-c2c(C(C)C)nn3ccccc23)n1
EC50, µM: 1.2

molecule: CC(C)Nc1nccc(-c2cnn3ccccc23)n1
EC50, µM: 4.9

molecule: c1ccn2nc(C3CC3)c(-c3ccnc(NC4CC4)n3)c2c1
EC50, µM: 0.3

molecule: Cc1cccc2c(-c3ccnc(NC(C)C)n3)cnn12
EC50, µM: 1.2

molecule: Clc1cccc(-c2nn3ccccc3c2-c2ccnc(NC3CCCC3)n2)c1
EC50, µM: 1.2

molecule: CC(C)Nc1nccc(-c2c(C(C)C)nn3ccccc23)n1
EC50, µM: 1.1

molecule: c1ccn2ncc(-c3ccnc(NC4CCCC4)n3)c2c1
EC50, µM: 0.6

----------
Test: Oral pharmacokinetic evaluation
Type: in vivo, rat
Conditions: male, Sprague-Dawley, rat, plasma, po, 15 mg/kg, Sprague-Dawley rats, 15 mg/kg oral gavage, plasma; read-out: Oral PK T½ (converted)
A collection of compounds and their measured half-life

compound-structure: Cc1cccc2c(-c3ccnc(NC(C)C)n3)cnn12
half-life: 1.1 h
//
compound-structure: CC(C)Nc1nccc(-c2c(C(C)C)nn3ccccc23)n1
half-life: 1.2 h
//
compound-structure: c1ccn2nc(C3CC3)c(-c3ccnc(NC4CCCC4)n3)c2c1
half-life: 3.6 h

----------
Test system: rat chronic constriction injury (CCI) model of neuropathic pain
Experiment: Rat chronic constriction injury (CCI) model of neuropathic pain
Format: in vivo
Details: IP, dose not given; 50% paw withdrawal threshold, von Frey
quantity-measured: IP CCI efficacy (Change in grams)

molecule: Brc1cccc(-c2nn3ccccc3c2-c2ccnc(NC3CCCC3)n2)c1
study-target: rat chronic constriction injury (CCI) model of neuropathic pain
test-value: [0] grams
//
molecule: CC(C)c1nn2ccccc2c1-c1ccnc(NCCCO)n1
study-target: rat chronic constriction injury (CCI) model of neuropathic pain
test-value: 0 grams
//
molecule: CC(C)c1nn2ccccc2c1-c1ccnc(NC2CCNC2)n1 (stereo not shown)
study-target: rat chronic constriction injury (CCI) model of neuropathic pain
test-value: 0 grams
//
molecule: Cc1cccc2c(-c3ccnc(NC(C)C)n3)c(C(C)C)nn12
study-target: rat chronic constriction injury (CCI) model of neuropathic pain
test-value: 0 grams
//
molecule: c1ccn2ncc(-c3ccnc(NC4CCCC4)n3)c2c1
study-target: rat chronic constriction injury (CCI) model of neuropathic pain
test-value: 0.44 grams
//
molecule: CC(C)c1nn2ccccc2c1-c1ccnc(N)n1
study-target: rat chronic constriction injury (CCI) model of neuropathic pain
test-value: 0.21 grams
//
molecule: Fc1cccc(-c2nn3ccccc3c2-c2ccnc(NC3CCCC3)n2)c1
study-target: rat chronic constriction injury (CCI) model of neuropathic pain
test-value: 0 grams
//
molecule: Oc1c2ccccc2c2c3c(cccc13)N=N2 [SP600125, reference compound]
study-target: rat chronic constriction injury (CCI) model of neuropathic pain
test-value: 0.5 grams
//
molecule: Cc1cccc2c(-c3ccnc(NC(C)C)n3)cnn12
study-target: rat chronic constriction injury (CCI) model of neuropathic pain
test-value: 0.3 grams
//
molecule: c1ccn2nc(C3CC3)c(-c3ccnc(NC4CCCC4)n3)c2c1
study-target: rat chronic constriction injury (CCI) model of neuropathic pain
test-value: [0] grams
//
molecule: CC(C)CNc1nccc(-c2c(C(C)C)nn3ccccc23)n1
study-target: rat chronic constriction injury (CCI) model of neuropathic pain
test-value: 0.93 grams
//
molecule: CC(C)Nc1nccc(-c2c(C3CC3)nn3ccccc23)n1
study-target: rat chronic constriction injury (CCI) model of neuropathic pain
test-value: 2.5 grams
//
molecule: CC(C)c1nn2ccccc2c1-c1ccnc(NCCCN2CCN(C)CC2)n1
study-target: rat chronic constriction injury (CCI) model of neuropathic pain
test-value: 0 grams
//
molecule: CC(C)c1nn2ccccc2c1-c1ccnc(NC2CCCC2)n1
study-target: rat chronic constriction injury (CCI) model of neuropathic pain
test-value: 0 grams
//
molecule: CC(C)c1nn2ccccc2c1-c1ccnc(NC2CC2)n1
study-target: rat chronic constriction injury (CCI) model of neuropathic pain
test-value: 0 grams
//
molecule: COc1ccc(Cc2nccc3cc(OC)c(OC)cc23)cc1OC [Papaverine, reference compound]
study-target: rat chronic constriction injury (CCI) model of neuropathic pain
test-value: 1.35 grams
